# abundance fitness listing for each entry below
B1: Homeobox protein cut-like 1, residues 548 to 629; numbered along this chain, P39880 (parent)
chain: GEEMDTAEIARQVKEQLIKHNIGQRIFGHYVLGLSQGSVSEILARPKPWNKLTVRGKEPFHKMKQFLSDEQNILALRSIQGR

Variants of: B1
Method notes: abundance fitness (aPCA) (normalised: wild type 0, dead -1); higher = more abundant; growth selection in yeast, the domain comes from the species named
Conditions used: Homo sapiens
API note: the answer field is a bare number with no unit suffix.

Look up abundance fitness for this variant: Q71W
-0.293

// provenance: the Human Domainome abundance scans (Beltran et al. 2025)
